target_or_test_system: T1, mouse tissue factor pathway inhibitor (TFPI) (mouse, UniProt O54819 29-289, limits assumed)
T1 construct: bought; also called mTFPI; murine TFPI
T1 sequence (looked up): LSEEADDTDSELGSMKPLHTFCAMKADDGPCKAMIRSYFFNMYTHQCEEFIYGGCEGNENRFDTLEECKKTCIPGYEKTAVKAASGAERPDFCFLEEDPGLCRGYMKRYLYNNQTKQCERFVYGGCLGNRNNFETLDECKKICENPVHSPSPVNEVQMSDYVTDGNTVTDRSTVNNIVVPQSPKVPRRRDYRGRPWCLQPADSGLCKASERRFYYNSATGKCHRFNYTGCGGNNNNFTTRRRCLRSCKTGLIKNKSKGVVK
assay_remarks: equilibrium ELISA
Friendly reminder: variant/wild-type below 20 ratio is fulfilled, at or above is not fulfilled.

*Q* Please indicate whether the reported variant/wild-type of 4B7 LC_F31I (Fab, V domains shown) VH: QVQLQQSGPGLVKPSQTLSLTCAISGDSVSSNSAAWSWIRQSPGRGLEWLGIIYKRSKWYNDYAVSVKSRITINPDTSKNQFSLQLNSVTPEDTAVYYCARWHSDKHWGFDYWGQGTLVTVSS VL: DIVMTQSPLSLPVTPGEPASISCRSSQSLVISDGNTYLNWYLQKPGQSPQLLIYKGSNRASGVPDRFSGSGSGTDFTLKISRVEAEDVGVYYCQQYDSYPLTFGQGTKVEIKR is strictly below 20 ratio.
*A* not fulfilled

*Q* Please indicate whether the reported variant/wild-type of 4B7 HC_D62V (Fab, V domains shown) VH: QVQLQQSGPGLVKPSQTLSLTCAISGDSVSSNSAAWSWIRQSPGRGLEWLGIIYKRSKWYNVYAVSVKSRITINPDTSKNQFSLQLNSVTPEDTAVYYCARWHSDKHWGFDYWGQGTLVTVSS VL: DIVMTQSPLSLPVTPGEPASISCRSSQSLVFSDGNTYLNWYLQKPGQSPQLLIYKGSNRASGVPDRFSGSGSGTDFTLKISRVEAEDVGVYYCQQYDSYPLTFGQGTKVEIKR is strictly below 20 ratio.
*A* not fulfilled

*Q* Please indicate whether the reported variant/wild-type of 4B7 HC_D62R (Fab, V domains shown, also called 4B7-D62R) VH: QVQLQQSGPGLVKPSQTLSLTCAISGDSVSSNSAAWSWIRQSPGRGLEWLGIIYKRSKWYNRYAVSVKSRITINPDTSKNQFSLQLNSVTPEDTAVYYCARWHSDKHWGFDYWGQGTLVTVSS VL: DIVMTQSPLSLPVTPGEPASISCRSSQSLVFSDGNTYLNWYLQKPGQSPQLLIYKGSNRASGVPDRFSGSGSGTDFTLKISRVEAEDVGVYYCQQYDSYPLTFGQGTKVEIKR is strictly below 20 ratio.
*A* not fulfilled

*Q* Please indicate whether the reported variant/wild-type of 4B7 LC_Y37F (Fab, V domains shown) VH: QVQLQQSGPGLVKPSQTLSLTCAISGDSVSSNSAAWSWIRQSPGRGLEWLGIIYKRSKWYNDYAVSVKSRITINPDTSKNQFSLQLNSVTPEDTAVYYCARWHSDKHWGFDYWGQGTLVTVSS VL: DIVMTQSPLSLPVTPGEPASISCRSSQSLVFSDGNTFLNWYLQKPGQSPQLLIYKGSNRASGVPDRFSGSGSGTDFTLKISRVEAEDVGVYYCQQYDSYPLTFGQGTKVEIKR is strictly below 20 ratio.
*A* fulfilled

*Q* Please indicate whether the reported variant/wild-type of 4B7 HC_D62I (Fab, V domains shown) VH: QVQLQQSGPGLVKPSQTLSLTCAISGDSVSSNSAAWSWIRQSPGRGLEWLGIIYKRSKWYNIYAVSVKSRITINPDTSKNQFSLQLNSVTPEDTAVYYCARWHSDKHWGFDYWGQGTLVTVSS VL: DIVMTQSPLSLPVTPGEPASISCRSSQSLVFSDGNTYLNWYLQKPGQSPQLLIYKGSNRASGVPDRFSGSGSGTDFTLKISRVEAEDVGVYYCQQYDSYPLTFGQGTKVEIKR is strictly below 20 ratio.
*A* not fulfilled

These measurements were taken from patent USRE47150.
